Reference source: the RNAGym collection of RNA variant scans (doi:10.1002/anie.201605470)

B1: Osa-1-4 twister ribozyme (parent)
chain: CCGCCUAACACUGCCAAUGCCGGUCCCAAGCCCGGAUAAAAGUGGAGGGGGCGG

- Variants of: B1
- protocol details: self-cleavage, relative activity (ratio to wild type); higher = more cleavage; co-transcriptional
value type: self-cleavage
Output spec: single numeric token, no unit.

For A36C G19C , what is its reported self-cleavage?
0.56

G54C U24G ?
0.02

What do you get for G42A G49C ?
0.07

Also G51U U24C , if possible.
0.05

Queued: C9G U24A
0.08

Then what about the variant A46G G50A ?
0.08

Entry to check: `C11G`
0.7

// next record A41U C14U
0.7

Next up: A38C G45C
0.05

Quick one: A8C U24G
0.01

And what about the variant A29U C9G ?
0.07

Also check A28G U18G
0.59

How about this variant: C25G G49C
0.7

What about C14G G19U ?
0.08

Ok, now A41G G54U
0.82

Another: A38C G50C
1.01

// next record C32G G35A
0.09

Same question for C20U C33A please.
0.11

Repeat with A28G G35U
0.15

Do the same for A39G G42U please
0.08

Ok, now G35C U37C
0.94

Also, C21U G53U please.
0.32

Same read-out for G22C U43C ?
0.03

Ok, now A36G C32A
0.09

Next: A7G G22U
0.1

One more variant: C27U G30C
0.02

Can you handle C27A C9G next?
0.1

Same thing, different variant: U12C U43A
0.11

Follow-up item: A10U U18C
0.05

Try this variant too: G34A G53C
0.05

Now consider `C9U` .
0.78

Also A46C G34U ?
0.04

Thanks! And A17U C20A ?
0.85

Here is the next variant: A7C G42U
0.02

Param item: C31G C9G
0.23

Thanks! And C15G G30A ?
0.03

Queued: G23A G49C
0.05

Another variant to check: A7C G22A
0.07

Same for C32U U12G
0.09

Can you check G19A G22C next?
0.05

Repeat with G34A G50U
0.83

Now the variant A17U C33U
0.85

Also check C14G G47A
0.05

Please do the same for G34C G50U as well.
0.41

Try the variant C11U G19C
0.07

Let us now turn to G51C U37G
0.18
